Parameter EC50: see the listing below.
# target or system: Human AhR (Homo sapiens, UniProt P35869)
# Construct: expressed in transfected cells
# Sequence (P35869 11-848): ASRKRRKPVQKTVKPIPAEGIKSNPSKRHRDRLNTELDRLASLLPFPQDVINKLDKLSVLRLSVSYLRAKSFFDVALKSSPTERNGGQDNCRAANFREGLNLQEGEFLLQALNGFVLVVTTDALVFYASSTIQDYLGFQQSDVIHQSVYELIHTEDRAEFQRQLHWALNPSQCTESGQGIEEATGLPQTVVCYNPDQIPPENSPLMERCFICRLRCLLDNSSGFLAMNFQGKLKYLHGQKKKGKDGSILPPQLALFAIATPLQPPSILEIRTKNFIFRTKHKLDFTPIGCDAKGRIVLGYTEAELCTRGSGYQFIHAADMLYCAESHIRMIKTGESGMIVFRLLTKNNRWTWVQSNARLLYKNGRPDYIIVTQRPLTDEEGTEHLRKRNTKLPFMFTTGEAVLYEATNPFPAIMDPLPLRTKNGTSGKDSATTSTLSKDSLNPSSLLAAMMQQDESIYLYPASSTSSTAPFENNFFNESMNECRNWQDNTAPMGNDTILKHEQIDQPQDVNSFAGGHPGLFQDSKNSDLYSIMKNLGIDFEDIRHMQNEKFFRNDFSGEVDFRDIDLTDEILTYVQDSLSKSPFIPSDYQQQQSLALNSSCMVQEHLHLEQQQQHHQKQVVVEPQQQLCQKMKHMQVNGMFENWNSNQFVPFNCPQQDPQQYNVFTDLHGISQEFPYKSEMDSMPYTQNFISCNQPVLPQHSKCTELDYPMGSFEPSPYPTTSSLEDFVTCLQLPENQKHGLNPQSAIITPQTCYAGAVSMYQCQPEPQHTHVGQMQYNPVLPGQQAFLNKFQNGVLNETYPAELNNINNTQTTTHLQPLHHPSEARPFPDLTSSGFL
# test summary: hAHR Nuclear Translocation Assay
# Type: cell-based
# condition summary: AhR-EGFP nuclear translocation in Jump-In T-REx HEK293 cells, 45 minutes incubation; class symbols; read-out: Rel EC50

Worked examples follow.
- compound: "CC1CCc2c1cc(C(=O)Nc1ccon1)c1nncn21 (single isomer, unassigned) [Example 33]"
  EC50: "> 50 nM"
- compound: "CC1CCc2c1cc(C(=O)Nc1cnn(C)n1)c1nncn21 (single isomer, unassigned) [Example 62]"
  EC50: "10 to 50 nM"
- compound: "CC1CCc2c1cc(C(=O)Nc1ccns1)c1nncn21 (single isomer, unassigned) [Example 38]"
  EC50: "1 to 10 nM"

Now examine the next entry.
**Query** Observed EC50 on Human AhR (Homo sapiens, UniProt P35869) for CC(C)OC1CCc2c1cc(C(=O)Nc1ncc(F)cn1)c1nncn21 (single isomer, unassigned) [Example 51] , please.
**Result** > 50 nM
